Cited source: patent US5466671A

Listed molecules paired with reported minimal inhibitory concentration (MIC)
- Tested on: M. morganii
- Test details: Minimal inhibitory concentration (liquid culture)
- Condition: inoculum 400 CFU/ml; a-b = highest concentration with growth - lowest without growth
Residues, ends and D or L forms follow the SMILES beside them.
Observed property: minimal inhibitory concentration (MIC)

INSERT INTO assay_data (molecule, observed_property, observed_result) VALUES
  ('CC[C@H](C)[C@H](NC(=O)[C@@H]1CCCN1C(=O)[C@H](C)NC(=O)[C@@H]1CCCN1C(=O)[C@H](CCCNC(=N)N)NC(=O)[C@@H]1CCCN1C(=O)[C@H](CCCCN)NC(=O)[C@@H](N)CC(N)=O)C(=O)N[C@@H](CCCCN)C(=O)N1CCC[C@H]1C(=O)N[C@@H](CCCNC(=N)N)C(=O)N1CCC[C@H]1C(=O)N1CCC[C@H]1C(=O)N[C@@H](Cc1c[nH]cn1)C(=O)N1CCC[C@H]1C(=O)N[C@@H](CCCNC(=N)N)C(=O)N[C@@H](CC(C)C)C(=O)O [Cd 2-] (H-NKPRPAPIKPRPPHPRL-OH)', 'minimal inhibitory concentration (MIC)', '1 to 5 µg/mL'),
  ('CC(C)C[C@H](NC(=O)[C@H](CCCNC(=N)N)NC(=O)[C@@H]1CCCN1C(=O)[C@H](Cc1c[nH]cn1)NC(=O)[C@@H]1CCCN1C(=O)[C@@H]1CCCN1C(=O)[C@H](CCCNC(=N)N)NC(=O)[C@@H]1CCCN1C(=O)[C@H](C)NC(=O)[C@@H]1CCCN1C(=O)[C@@H](NC(=O)[C@H](Cc1ccc(O)cc1)NC(=O)[C@@H](NC(=O)[C@@H]1CCCN1C(=O)[C@H](CCCNC(=N)N)NC(=O)[C@@H](N)CC(N)=O)[C@@H](C)O)C(C)C)C(=O)O [Ck A] (H-NRPTYVPAPRPPHPRL-OH)', 'minimal inhibitory concentration (MIC)', '20 to 40 µg/mL');
